Where these numbers come from: patent US20240209076A1

Biological target: human IL-6 (human, UniProt P05231 30-212)
Sequence (P05231 30-212 limits assumed): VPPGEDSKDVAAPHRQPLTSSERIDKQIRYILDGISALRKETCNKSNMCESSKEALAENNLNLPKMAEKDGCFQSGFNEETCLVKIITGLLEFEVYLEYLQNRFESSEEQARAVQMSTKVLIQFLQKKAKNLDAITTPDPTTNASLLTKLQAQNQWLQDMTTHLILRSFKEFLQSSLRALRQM
Experiment: SPR (Biacore), supernatant antibody on Protein A chip, IL-6 flowed, 37 C
testReadout: koff (s⁻¹)
# unit: s⁻¹ | format: bare number

- binder: "anti-IL-6 antibody, heavy chain S35G, G66D / light chain M32L, M50D, N52S, M88Q (antibody, human IgG1, V domains shown, Human IgG1) VH: EVQLVESGGGLVQPGGSLRLSCAASGFTFSPFAMGWVRQAPGKGLEWVAKISPGGSWTYYSDTVTDRFTFSLDTSKSTAYLQMNSLRAEDTAVYYCARQLWGYYALDIWGQGTLVTVSS VL: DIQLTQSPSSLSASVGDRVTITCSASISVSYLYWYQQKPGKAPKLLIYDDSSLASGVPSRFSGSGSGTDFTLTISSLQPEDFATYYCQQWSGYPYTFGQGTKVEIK"
  unitSymbol: "s⁻¹"
  koff: 0.000781

Next item in the queue.
Problem: Request the reported koff associated with anti-IL-6 antibody, heavy chain WT / light chain M32L, M50D, N52S, M88Q (antibody, human IgG1, V domains shown, Human IgG1) VH: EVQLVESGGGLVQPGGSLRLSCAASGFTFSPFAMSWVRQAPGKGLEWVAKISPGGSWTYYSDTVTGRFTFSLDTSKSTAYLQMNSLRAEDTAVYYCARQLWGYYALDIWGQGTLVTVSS VL: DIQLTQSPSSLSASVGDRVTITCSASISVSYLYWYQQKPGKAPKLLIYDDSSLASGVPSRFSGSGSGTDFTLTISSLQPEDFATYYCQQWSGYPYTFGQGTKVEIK
Result: 0.000414
